Test: gradient 5% acetonitrile 3 min, to 50% in 2 min, to 85% in 15 min, held 3 min, 100 µL/min
Conditions: column: Zorbax Extend-C18 2.1 x 50 mm; eluents: water / acetonitrile, 0.1% formic acid

# COMPOUND, RP-LC retention time (s)
records = [
    ("Cc1c(C(=O)NCC2CC2)cnn1-c1cc(-c2nc(C(C)(C)C)no2)ccn1", 742),
    ("Fc1ccc(OCc2nnc3sc(-c4ccccn4)nn23)cc1", 846),
    ("Cc1cccc(C)c1NC(=O)Cn1cnc2nc(N3CCCC(C(=O)NC4CC4)C3)sc2c1=O (stereo not drawn)", 678),
]

###

Test: gradient 5% acetonitrile 3 min, to 50% in 2 min, to 85% in 15 min, held 3 min, 100 µL/min
Details: column: Zorbax Extend-C18 2.1 x 50 mm; eluents: water / acetonitrile, 0.1% formic acid
Response field label: string, one of t (RP-LC retention time strictly below 900 s) or f.

# COMPOUND, ASSIGNED CATEGORY
records = [
    ("Cc1ccccc1-c1noc(-c2nn(-c3ccc(Cl)cc3)ccc2=O)n1", "f"),
    ("CC(CCNC(=O)c1ccc2ccnc(N3CCN(c4ccc(F)cc4)CC3)c2c1)N1CCCC1 (configuration not stated)", "t"),
    ("CC1(C)CC(=O)C2=C(C1)Nc1ccccc1N(C(=O)c1ccccc1)C2c1ccco1 (configuration not stated)", "t"),
    ("Cc1ccc(N2CCC(NC(=O)C(C)C)C2=O)cc1C (configuration not stated)", "t"),
    ("COc1cccc(C2c3c(oc4cc(C)c(C)cc4c3=O)C(=O)N2CCCN2CCOCC2)c1 (configuration not stated)", "t"),
    ("CC(C)c1ccc(S(=O)(=O)N2CCCC2c2nc(-c3ccccc3)no2)cc1 (configuration not stated)", "f"),
    ("CCOc1cc(=O)n2c(c1C(=O)Nc1ccc(C(N)=O)cc1)CCCC2", "t"),
    ("CCN(CC)CCNC(=O)c1sc(COc2ccccc2)nc1C", "t"),
    ("CCN(CC)CCCC(C)Nc1nc(C)nc2cc(Cl)ccc12 (configuration not stated)", "t"),
    ("Cc1cn(C)c(CC(=O)NCc2ccco2)c1C(=O)O", "t"),
    ("CCOC(=O)c1cn(Cc2ccc(C)cc2)c2nc(C)ccc2c1=O", "t"),
    ("O=C(NCC1CCN(C(=O)c2cc3ccccc3o2)CC1)C(=O)NCC1CCCO1 (configuration not stated)", "t"),
    ("O=C(NCC1CCCO1)N1CCN(c2nc3ccccc3n(Cc3ccccc3)c2=O)CC1 (configuration not stated)", "t"),
    ("Cc1ccc(CNC(=O)c2cc3n(n2)CC(C)(C(=O)NCCC(C)C)N(C)C3=O)cc1 (configuration not stated)", "t"),
    ("O=C(NC1CC1)[C@@H]1C[C@H](Oc2ccccc2)CN1C(=O)C1(c2ccccc2)CC1", "t"),
    ("Cc1ccc(Cl)cc1N1CCN(C(=O)Cn2nc(C(=O)N3CCCC3)c3ccccc32)CC1", "f"),
    ("O=C(NCc1cccs1)c1c(O)c2cccnc2n(Cc2ccccc2)c1=O", "f"),
    ("Cc1nc(CSc2ccc(-c3cccc([N+](=O)[O-])c3)nn2)cs1", "t"),
    ("CC(=O)Nc1cc(C(=O)NCCC2=CCCCC2)c2ccc(C)nc2c1", "t"),
    ("Cc1ccccc1CC(=O)Nc1ccc2c(c1)Sc1ncccc1C(=O)N2C", "t"),
    ("CC(=O)Nc1ccc(-n2cnc(C(=O)N3CCN(c4ccc(Cl)cc4)CC3)c2)nc1", "t"),
    ("COc1ccc(S(=O)(=O)Nc2ccc(C)n(CC(=O)O)c2=O)cc1", "t"),
]

###

Quick list: RP-LC retention time per entry.
Assay: gradient 5% acetonitrile 3 min, to 50% in 2 min, to 85% in 15 min, held 3 min, 100 µL/min
Conditions: column: Zorbax Extend-C18 2.1 x 50 mm; eluents: water / acetonitrile, 0.1% formic acid

# MOLECULE, RP-LC retention time (s)
measured = [
    ("Cc1ccc(C)c(N2CCN(c3ccnc(SCC(=O)Nc4cccc(Cl)c4F)n3)CC2)c1", 1230),
    ("COc1ccc(C2C=C(c3ccc4c(c3)OCO4)Oc3c2c(=O)oc2ccccc32)cc1OC (stereo not drawn)", 1090),
    ("CC(C)(O)[C@@H]1[C@@H]2OC(=O)[C@H]1[C@]1(O)C[C@H]3O[C@]34C(=O)O[C@H]2[C@]14C", 709),
]

###

Assay: gradient 5% acetonitrile 3 min, to 50% in 2 min, to 85% in 15 min, held 3 min, 100 µL/min
Details: column: Zorbax Extend-C18 2.1 x 50 mm; eluents: water / acetonitrile, 0.1% formic acid
// RP-LC retention time lookup, one value per entry

# COMPOUND, RP-LC retention time, s
rows = [
    ("Cc1nn(C)c(C)c1CCN(C)C(=O)C1Cn2cccc2C(=O)N1C (stereo unspecified)", 680),
    ("COc1cc(OC)cc(C(=O)N2CCN=C2N2CCCCC2)c1", 646),
    ("O=C(NCc1ccccc1F)C1CCN(c2nnc3ccc(C(F)(F)F)cn23)CC1", 764),
    ("COc1ccc(C2CC(=O)Nc3c(C(=O)O)cn(-c4cccc(C(F)(F)F)c4)c32)cc1OC (stereo unspecified)", 780),
    ("Cc1nc2cc(N3CCCC(C(=O)NCc4cccs4)C3)cnc2nc1C (stereo unspecified)", 687),
    ("O=C(CN1CCC2(CC1)N=C(c1ccc(Br)cc1)C(=O)N2)Nc1ccccc1", 825),
]

###

RP-LC retention time by entry:
Assay: gradient 5% acetonitrile 3 min, to 50% in 2 min, to 85% in 15 min, held 3 min, 100 µL/min
Settings: column: Zorbax Extend-C18 2.1 x 50 mm; eluents: water / acetonitrile, 0.1% formic acid

# COMPOUND, RP-LC retention time (s)
records = [
    ("CCCOC(=O)c1cnc2nc(C)ccc2c1NCc1ccc(OC)c(OC)c1", 701),
    ("O=C(NCCc1ccncc1)C1CC(=O)N(c2n[nH]c3cc(Br)ccc23)C1 (configuration not stated)", 601),
    ("Cn1cc(SCC(=O)Nc2ccccc2C(F)(F)F)c2ccccc21", 967),
    ("Cc1nc(-c2cc(S(=O)(=O)Nc3ccccc3Cl)c(C)s2)sc1C", 1120),
    ("COc1ccc(C2(C(=O)N3CCC(Oc4ccc(-c5noc(C)n5)cc4)C3)CC2)cc1 (configuration not stated)", 913),
    ("COc1c(/C=N/NC(N)=O)c(OC)c(OC)c2c1CCO2", 1080),
    ("CCOc1cccc(C2c3[nH]c4ccccc4c3CCN2C(=O)c2ccncc2)c1 (configuration not stated)", 959),
    ("Cn1c(CCNC(=O)c2ccc(C(F)(F)F)cc2)nc2cccnc21", 686),
    ("CCOC(=O)Cc1ccc(NC(=O)NC2CCN(c3cc(C)cc(C)c3)C2=O)cc1 (configuration not stated)", 888),
    ("COC(=O)C1CCN([C@H]2CS(=O)(=O)C[C@@H]2S(=O)(=O)c2ccc(Cl)cc2)CC1", 856),
    ("Cc1nc(-c2csc(S(=O)(=O)N3CCC(C(=O)NCC4CCCO4)CC3)c2)no1 (configuration not stated)", 725),
    ("CC(=O)N1CCc2cc(CNS(=O)(=O)c3ccccc3)ccc21", 691),
    ("Cc1cccc(NC(=O)C2C(=O)NC3(C)CC2c2ccccc2O3)c1 (configuration not stated)", 920),
    ("Cc1ccc(C(=O)N[C@@H]2CN(S(C)(=O)=O)C[C@H]2CN(C)C)s1", 582),
    ("CC1CN2C=NC(N3CCN(S(=O)(=O)Cc4cccc(Cl)c4)CC3)=CC2=N1 (configuration not stated)", 627),
    ("Cc1cccc(NC(=O)N2CCc3nc(-c4ccc(F)cc4)ncc3C2)c1C", 974),
    ("COc1ccc(C(=O)CSc2nc(-c3ccc(OC)cc3)ns2)cc1", 1090),
    ("COc1ccc(NS(=O)(=O)c2cc(-c3cc(C(F)(F)F)on3)sc2C)c(OC)c1", 1130),
    ("CC(C)Cn1cc(CCNC(=O)c2cc3ccccc3[nH]2)c2cccnc21", 850),
    ("CC(=O)N1c2ccc(S(=O)(=O)N3CCCC3)cc2CC1C(=O)NCc1ccc(N(C)C)cc1 (configuration not stated)", 620),
    ("O=C(NCc1ccco1)C(=O)NCC(c1cccnc1)N1CCOCC1 (configuration not stated)", 568),
    ("O=C(Nc1cc(F)cc(F)c1)c1c(O)c2cccnc2n(-c2ccccc2)c1=O", 709),
    ("Cc1ccn(CC(=O)NC2CCN(c3ccc(=O)n(CC4CC4)n3)C2)n1 (configuration not stated)", 631),
    ("O=C(Nc1cccnc1)c1ccc(Cl)c(S(=O)(=O)N2CCOCC2)c1", 589),
    ("COC(=O)c1cc(-c2cccc(N)c2)nc2ccccc12", 749),
    ("c1cc(-c2noc(-c3ccsc3)n2)cc(N2CCCC2)n1", 664),
    ("Cc1nc2nc(-c3ccccc3)nn2c(C)c1CC(=O)NC(C)C", 700),
    ("O=C(C1CCCN(c2ccc(-c3ccccc3)nn2)C1)N1CCN(c2ccccn2)CC1 (configuration not stated)", 576),
    ("CCCN1CCn2cc(S(=O)(=O)Nc3cccc(C)c3C)cc2C1=O", 758),
    ("CCOc1cc(-c2ccc(C)cc2)nc2ccc(NC(=O)c3ccco3)cc12", 764),
    ("CC1CC(=O)Nc2ccccc2N1C(=O)c1ccc(Cl)cc1 (configuration not stated)", 743),
    ("CN1c2cc(F)ccc2C(=O)NC12CCN(C(=O)c1ccc(F)c(F)c1)CC2", 776),
    ("CCCc1cc(N2CCN(C(=O)Cc3ccsc3)CC2)nc2nnc(CC)n12", 649),
    ("Cn1nc(CNC(=O)c2cccc(NC(=O)c3ccco3)c2)c2ccccc21", 736),
    ("Cc1c(-c2nnc(C3CCC3)o2)c(S(=O)(=O)Nc2cccc(Cl)c2F)c(C)n1C", 1060),
    ("O=C(Cn1cccc1-c1nnc(C2CC2)o1)NCc1ccc2c(c1)OCO2", 749),
    ("CC(NC(=O)c1ccco1)c1nc(-c2ccc(-c3csc(-c4ccccc4)n3)cc2)no1 (configuration not stated)", 1200),
]

FYI, the data here is from the METLIN SMRT retention time set (Domingo-Almenara et al. 2019).
